Recorded AUC(0-t) for the following compounds
Assay: AUC (0 to t) in rat administered via gavage by HPLC-MS/MS method
Format: ADME, organism-based
Details: in vivo, po
Measurement Type: AUC(0-t)

Compound	Result Value
N#Cc1ccc(N2C(=O)C3Cc4ccccc4CN3C2=S)cc1C(F)(F)F (centres undefined)	3860 ng·h/mL
CCOC(=O)Nc1cc2c(cc1F)CC1C(=O)N(c3ccc(C#N)c(C(F)(F)F)c3)C(=S)N1C2 (centres undefined)	30000 ng·h/mL
CCOC(=O)Nc1ccc2c(c1)CN1C(=S)N(c3ccc(C#N)c(C(F)(F)F)c3)C(=O)C1C2 (centres undefined)	7030 ng·h/mL
N#Cc1ccc(N2C(=O)C3Cc4ccccc4N3C2=S)cc1C(F)(F)F (centres undefined)	2860 ng·h/mL

----------
Biological target: Androgen receptor (Homo sapiens)
Details: at 10 µM
Description: Antagonist activity at androgen receptor (unknown origin) expressed in African green monkey COS7 cells assessed as inhibition of R1881-induced protein activation at 10 uM after 24 hrs by luciferase reporter gene assay relative to control

Compound	inhibition
CC(=O)Nc1ccc2c(c1)CN1C(=S)N(c3ccc(C#N)c(C(F)(F)F)c3)C(=O)C1C2 (stereo unspecified)	25%
CCOC(=O)Nc1cc2c(cc1F)CC1C(=O)N(c3ccc(C#N)c(C(F)(F)F)c3)C(=S)N1C2 (stereo unspecified)	85.1%
CC(C)Oc1ccc2c(c1)CN1C(=S)N(c3ccc(C#N)c(C(F)(F)F)c3)C(=O)C1C2 (stereo unspecified)	45.4%
CCC(=O)Nc1ccc2c(c1)CN1C(=S)N(c3ccc(C#N)c(C(F)(F)F)c3)C(=O)C1C2 (stereo unspecified)	4.5%
CNC(=O)c1cc2c(cc1F)CC1C(=O)N(c3ccc(C#N)c(F)c3)C(=S)N1C2 (stereo unspecified)	26.7%
CCOc1ccc2c(c1)CN1C(=S)N(c3ccc(C#N)c(C(F)(F)F)c3)C(=O)C1C2 (stereo unspecified)	47.1%
CC12Cc3ccccc3CN1C(=S)N(c1ccc(C#N)c(C(F)(F)F)c1)C2=O (stereo unspecified)	26.2%
CC(C)COc1ccc2c(c1)CN1C(=S)N(c3ccc(C#N)c(C(F)(F)F)c3)C(=O)C1C2 (stereo unspecified)	61.5%
CCOC(=O)CCCOc1ccc2c(c1)CN1C(=S)N(c3ccc(C#N)c(C(F)(F)F)c3)C(=O)C1C2 (stereo unspecified)	43.9%
N#Cc1ccc(N2C(=O)C3Cc4cc(I)c(O)c(I)c4CN3C2=S)cc1C(F)(F)F (stereo unspecified)	27.3%
